Test system: setaria glauca L.
test: herbicidal activity, soil treatment one day after sowing
Assay type: in vivo
assay.conditions: 6 kg/ha
readout.type: activity on E, 0-4 scale
Keep the answer to the number alone.

compound | activity on E, 0-4 scale
CCC(C)N(C(=O)c1cc(Cl)ccc1Br)C(C)CC (centres unmarked) [PA504] | 4
CCCCN(CCCC)C(=O)c1cccc(Br)c1 [PA396, 3-bromo-N,N-di-n,butyl-benzamide, reference compound] | 0
CCC(C)N(C(=O)c1c(Cl)cc(Cl)cc1Cl)C(C)CC (centres unmarked) [PA633] | 4

Looking up O=C(O)c1cccc(Cl)c1 [PA439, 3,chloro-benzoic acid, reference compound] , I see its activity on E, 0-4 scale listed as 0

###

# reported activity on P, 0-4 scale; entries follow
Test system: oryza sativa L. (rice)
test: activity on agrarian species, soil treatment one day after sowing
Assay type: in vivo
assay.conditions: in vivo
Keep the answer to the number alone.

// worked examples, activity on P, 0-4 scale included
compound | assayed.system | number
CCC(C)N(C(=O)c1cccc(Cl)c1)C(C)CC (stereo not shown) [PA215, 3-chloro-N,N-di-sec.butyl-benzamide] | oryza sativa L. (rice) | 0
CCC(C)N(C(=O)c1cccc(Cl)c1Cl)C(C)CC (stereo not shown) [PA336, 2,3-dichloro-N,N-di-sec.butyl-benzamide] | oryza sativa L. (rice) | 0
CCN(CC)C(=O)c1cccc(Cl)c1 [PA321, 3,chloro-N,N-diethyl-benzamide, reference compound] | oryza sativa L. (rice) | 2

Let us move to another entry and its activity on P, 0-4 scale.
// compound CCC(C)N(C(=O)c1ccc(Cl)c(Cl)c1Cl)C(C)CC (stereo not shown) , assay oryza sativa L. (rice), activity on P, 0-4 scale value: 0

###

Tested on: chenopodium album L.
test: herbicidal activity, soil treatment one day after sowing
Assay type: in vivo
assay.conditions: 6 kg/ha
# reported activity on C, 0-4 scale; entries follow
Keep the answer to the number alone.

// worked examples, activity on C, 0-4 scale included
compound | readout.type | number
CCCCN(C(=O)c1ccc(Cl)c(Cl)c1)C(C)CC (stereo not drawn) | activity on C, 0-4 scale | 2
CCN(CC)C(=O)c1cc(Cl)cc(Cl)c1 [PA291, 3,5-dichloro-N,N-diethyl-benzamide, reference compound] | activity on C, 0-4 scale | 3

Looking up Cc1cccc(C(=O)O)c1 [PA442, 3,methyl-benzoic acid, reference compound] , I see its activity on C, 0-4 scale listed as 0

###

# reported activity on G, 0-4 scale; entries follow
Test system: avena sativa (oats)
test: activity on agrarian species, soil treatment one day after sowing
Assay type: in vivo, Avena sativa L.
assay.conditions: 6 kg/ha
Keep the answer to the number alone.

// worked examples, activity on G, 0-4 scale included
compound | assayed.system | readout.type | number
CCC(C)N(C(=O)c1cc(Cl)cc(Cl)c1Cl)C(C)CC (stereo not shown) | avena sativa (oats) | activity on G, 0-4 scale | 1
CCC(C)N(C(=O)c1cc(Cl)cc(Cl)c1)C(C)CC (stereo not shown) [PA234, 3,5-dichloro-N,N-di-sec.butyl-benzamide] | avena sativa (oats) | activity on G, 0-4 scale | 0
CCC(C)N(C(=O)c1ccc(Cl)c(Br)c1)C(C)CC (stereo not shown) | avena sativa (oats) | activity on G, 0-4 scale | 0

Let us move to another entry and its activity on G, 0-4 scale.
// compound CCC(C)N(C(=O)c1ccc(Cl)c(Cl)c1)C(C)CC (stereo not shown) [PA106, 3,4-dichloro-N,N-di-sec.butyl-benzamide] , assay avena sativa (oats), activity on G, 0-4 scale value: 0

###

# reported activity on C, 0-4 scale; entries follow
System: chenopodium album L.
test: herbicidal activity, soil treatment one day after sowing
Assay type: in vivo
assay.conditions: 6 kg/ha

// worked examples, activity on C, 0-4 scale included
compound | activity on C, 0-4 scale
CCN(CC)C(=O)c1cccc(Cl)c1 [PA321, 3,chloro-N,N-diethyl-benzamide, reference compound] | 1-2
CCC(C)N(C(=O)c1cc(Cl)ccc1Cl)C(C)CC (stereo not drawn) [PA412, 2,5-dichloro-N,N-di-sec.butyl-benzamide] | 2-3

Looking up CCC(C)N(C(=O)c1cc(Cl)cc(Br)c1)C(C)CC (stereo not drawn) [PA626] , I see its activity on C, 0-4 scale listed as 0-1

Looking up CCC(C)N(C(=O)c1cccc(Cl)c1)C(C)CC (stereo not drawn) [PA215, 3-chloro-N,N-di-sec.butyl-benzamide] , I see its activity on C, 0-4 scale listed as 1-2

Looking up CCC(C)N(C(=O)c1cccc(I)c1)C(C)CC (stereo not drawn) [PA491, 3-iodo-N,N-di-sec.butyl-benzamide] , I see its activity on C, 0-4 scale listed as 3-4

Looking up CCC(C)N(C(=O)c1c(Cl)cccc1Cl)C(C)CC (stereo not drawn) [PA227, 2,6-dichloro-N,N-di-sec.butyl-benzamide] , I see its activity on C, 0-4 scale listed as 3-4

Looking up CC(C)N(C(=O)c1ccc(Cl)cc1Cl)C(C)C [PA281, 2,4-dichloro-N,N-di-isopropyl-benzamide, reference compound] , I see its activity on C, 0-4 scale listed as 0-1

Looking up CCC(C)N(C(=O)c1cc(Cl)cc(Cl)c1Cl)C(C)CC (stereo not drawn) [PA300] , I see its activity on C, 0-4 scale listed as 1-2

Looking up CCN(CC)C(=O)c1ccc(Cl)cc1Cl [PA283, 2,4-dichloro-N,N-diethyl-benzamide, reference compound] , I see its activity on C, 0-4 scale listed as 1-2

Looking up CCCN(CCC)C(=O)c1ccc(Cl)cc1Cl [PA200, 2,4-dichloro-N,N-di-n-propyl-benzamide, reference compound] , I see its activity on C, 0-4 scale listed as 2-3

Looking up CCC(C)N(C(=O)c1ccccc1Cl)C(C)CC (stereo not drawn) [PA215 2,chloro-N,N-disec.butyl-benzamide, 2-chloro-N,N-di-sec.butyl-benzamide] , I see its activity on C, 0-4 scale listed as 0-1

Looking up CCCN(CCC)C(=O)c1cccc(Cl)c1 [PA322, 3,chloro-N,N-di-n.propyl-benzamide, reference compound] , I see its activity on C, 0-4 scale listed as 0-1

###

# reported activity on E, 0-4 scale; entries follow
Tested on: setaria glauca L.
test: herbicidal activity, soil treatment one day after sowing
Assay type: in vivo
assay.conditions: 6 kg/ha

// worked examples, activity on E, 0-4 scale included
molecule | activity on E, 0-4 scale
CCCCN(CCCC)C(=O)c1cccc(C)c1 [PA386, 3,methyl-N,N-di-n.butyl-benzamide, reference compound] | 0-1
CCCC(C)N(C(=O)c1ccc(Cl)c(Cl)c1)C(C)CC (stereo not shown) [PA634] | 3-4
CCC(C)N(C(=O)c1ccc(Br)c(C)c1)C(C)CC (stereo not shown) [PA481] | 3-4

Looking up CCC(C)N(C(=O)c1ccc(Br)c(Br)c1)C(C)CC (stereo not shown) [PA484, 3,4-dibromo-N,N-di-sec.butyl-benzamide] , I see its activity on E, 0-4 scale listed as 4-3

###

# reported activity on E, 0-4 scale; entries follow
Test system: setaria glauca L.
test: herbicidal activity, soil treatment one day after sowing
Format: in vivo
assay.conditions: 6 kg/ha

// worked examples, activity on E, 0-4 scale included
compound | activity on E, 0-4 scale
Cc1cccc(C(=O)N(C(C)C)C(C)C)c1 [PA385, 3,methyl-N,N-di-isopropyl-benzamide, reference compound] | 0-1
CCCCN(C(=O)c1cccc(Br)c1)C(C)CC (centres unmarked) [PA525, 3-bromo-N,n.butyl-N-sec.butyl-benzamide] | 3-4
CCC(C)N(C(=O)c1cccc(Cl)c1)C(C)CC (centres unmarked) [PA215, 3-chloro-N,N-di-sec.butyl-benzamide] | 3
CCCN(CCC)C(=O)c1cccc(C)c1 [PA384, 3,methyl-N,N-di-n.propyl-benzamide, reference compound] | 0-1
CC(C)N(C(=O)c1ccc(Cl)cc1Cl)C(C)C [PA281, 2,4-dichloro-N,N-di-isopropyl-benzamide, reference compound] | 0-1

Looking up CCCCN(CCCC)C(=O)c1cc(Cl)cc(Cl)c1 [PA294, 3,5-dichloro-N,N-di-n.butyl-benzamide, reference compound] , I see its activity on E, 0-4 scale listed as 3

Looking up CCC(C)N(C(=O)c1cc(Cl)c(Cl)cc1Cl)C(C)CC (centres unmarked) , I see its activity on E, 0-4 scale listed as 3-4

Looking up C=CCN(CC=C)C(=O)c1cccc(Br)c1 [PA499, 3-bromo-N,N-di-allyl-benzamide, reference compound] , I see its activity on E, 0-4 scale listed as 3

###

# reported activity on E, 0-4 scale; entries follow
System: setaria glauca L.
test: herbicidal activity, soil treatment one day after sowing
Format: in vivo
assay.conditions: 6 kg/ha
Keep the answer to the number alone.

// worked examples, activity on E, 0-4 scale included
compound | readout.type | number
CC(C)N(C(=O)c1cc(Cl)cc(Cl)c1Cl)C(C)C [PA302, reference compound] | activity on E, 0-4 scale | 4
CCC(C)N(C(=O)c1cccc(C)c1)C(C)CC (centres unmarked) [PA226, 3-methyl-N,N-di-sec.butyl-benzamide] | activity on E, 0-4 scale | 4
CCC(C)N(C(=O)c1cc(Cl)cc(Br)c1)C(C)CC (centres unmarked) [PA626] | activity on E, 0-4 scale | 4

Looking up CCC(C)N(C(=O)c1cccc(Br)c1)C(C)CC (centres unmarked) [PA337/3/Br, 3-bromo-N,N-di-sec.butyl-benzamide] , I see its activity on E, 0-4 scale listed as 4

Every entry's value here was drawn from patent US3982931A.
